MEASUREMENT_NAME: melting point (°C)
// units = °C; emit number, no label

The recorded melting point for CC(c1ccc(C(O)(C(F)(F)F)C(F)(F)F)cc1)S(=O)(=O)c1ccccc1 (stereo not shown) [Example 8] is 136

Lab note: O=S(=O)(Cc1ccc(C(O)(C(F)(F)F)C(F)(F)F)cc1)c1cccc(Br)c1 [Example 6] gave melting point of 121

Record CCC(c1ccc(C(O)(C(F)(F)F)C(F)(F)F)cc1)S(=O)(=O)c1ccccc1 (stereo not shown) [Example 15] . Reported melting point: 148

Sample O=S(=O)(c1ccccc1)C(Cc1ccccc1)c1ccc(C(O)(C(F)(F)F)C(F)(F)F)cc1 (stereo not shown) [Example 9] ; melting point observed: 157

Recorded melting point (molecule CC(C)(c1ccc(C(O)(C(F)(F)F)C(F)(F)F)cc1)S(=O)(=O)c1ccccc1 [Example 19] ): 185

Lab note: measured melting point of Cc1ccc(S(=O)(=O)Cc2ccc(C(O)(C(F)(F)F)C(F)(F)F)cc2)cc1 [Example 2] was 129

Entry O=S(=O)(c1ccccc1)C(CC(F)(F)F)c1ccc(C(O)(C(F)(F)F)C(F)(F)F)cc1 (stereo not shown) [Example 16] — recorded melting point = 151

Where do these numbers come from? They come from patent US6822120B2.
